test_method_notes: NCI Yeast Anticancer Drug Screen. Data for the mlh1 rad18 strain (AID 175)
recorded_conditions: S. cerevisiae mlh1 rad18 strain growth inhibition; at 50.0 µM
About 79,000 compounds went through this panel and 15% of them were active in at least one assay; those are over-represented in the sample as a whole. Active and inactive are the calls of the source. Cut-off read from the data, not from the text of the source: active = growth inhibition above about 70%; inactive = the rest.
Write down the outcome that applies. Available outcomes: active, inactive

Consider the worked cases shown below.
                 compound     group
0   CCCCCCCCCCCCNc1ccccn1    active
1  CCOC(=O)CC(N)CC(=O)OCC  inactive

In this assay, the call recorded for CC1SC(c2ccc(Cl)cc2)N2C(=O)C(C)SC(c3ccc(Cl)cc3)N2C1=O (centres undefined) was what? inactive

In this assay, the call recorded for `CC(=O)Nc1ccc2c(c1)C(=Nc1ccc(F)cc1)c1ccccc1-2` was what? inactive

In this assay, the call recorded for `CCCCCCCCCCCCCCCCCc1nnc(N)o1` was what? inactive

In this assay, the call recorded for `C(=C\c1ccc(-[n+]2nc(-c3ccccc3)nn2-c2ccccc2)cc1)/c1ccccc1` was what? active

In this assay, the call recorded for `O=C(O)c1ccccc1C1c2ccccc2Oc2ccccc21` was what? active

In this assay, the call recorded for `N=C1c2ccccc2-c2ccccc21` was what? inactive

In this assay, the call recorded for `O=C1c2c(F)c(F)c(F)c(F)c2SC2=NCCN12` was what? active

In this assay, the call recorded for Fc1ccc(C2SCc3nc4ccccc4n32)cc1Cl (centres undefined) was what? active

In this assay, the call recorded for Cc1ccc(N2C(=O)C(C)SC2=S)cc1Cl (centres undefined) was what? active

In this assay, the call recorded for `CC1=C(C)C(=O)C2=C(OCCCO2)C1=O` was what? inactive

In this assay, the call recorded for `O=[N+]([O-])c1ccc2nc(Nc3ccccc3)c(Nc3ccccc3)nc2c1` was what? active

---

# growth inhibition per record follows
test_method_notes: NCI Yeast Anticancer Drug Screen. Data for the mlh1 rad18 strain (AID 175)
recorded_conditions: S. cerevisiae mlh1 rad18 strain growth inhibition; at 50.0 µM (retest, dose inferred, filed as 5.0); active compounds read high
Compounds without any hit were thinned out: in the full panel of roughly 79,000, 15% have a hit.
Please reply with the bare figure in % and do not write the unit itself.

Here are 5 compounds together with their reported answers.
In [3]: df
Out[3]:
                                   compound         value_type  units_of_measure  recorded_value
0  Cc1ccc(S(=O)(=O)NC2(C=O)CCC(C(C)(C)C)CC2)cc1 (stereo unspecified)  growth inhibition                 %              95
1  O=C1c2ccccc2C(=O)c2sc(Nc3ccccc3C(F)(F)F)nc21  growth inhibition                 %              96
2        Nc1ccc(S(=O)(=O)N2CCCc3ccccc32)cc1  growth inhibition                 %              40
3       Cc1ccccc1Nc1nc(-c2ccccc2)nc(N)c1N=O  growth inhibition                 %              97
4      CCCCCC(O)C(C)CO (stereo unspecified)  growth inhibition                 %              -1

# context switch: different compound, same growth inhibition
Value of measured growth inhibition for the entry CCCCCCCCCCCCCCCCCCOC(=O)C(N)Cc1ccccc1 (stereo unspecified) : -8
